Below are IC50 measurements against GCN2 (Homo sapiens (Human), UniProt Q9P2K8) drawn from the literature.
Sequence (Q9P2K8 whole entry, species assumed): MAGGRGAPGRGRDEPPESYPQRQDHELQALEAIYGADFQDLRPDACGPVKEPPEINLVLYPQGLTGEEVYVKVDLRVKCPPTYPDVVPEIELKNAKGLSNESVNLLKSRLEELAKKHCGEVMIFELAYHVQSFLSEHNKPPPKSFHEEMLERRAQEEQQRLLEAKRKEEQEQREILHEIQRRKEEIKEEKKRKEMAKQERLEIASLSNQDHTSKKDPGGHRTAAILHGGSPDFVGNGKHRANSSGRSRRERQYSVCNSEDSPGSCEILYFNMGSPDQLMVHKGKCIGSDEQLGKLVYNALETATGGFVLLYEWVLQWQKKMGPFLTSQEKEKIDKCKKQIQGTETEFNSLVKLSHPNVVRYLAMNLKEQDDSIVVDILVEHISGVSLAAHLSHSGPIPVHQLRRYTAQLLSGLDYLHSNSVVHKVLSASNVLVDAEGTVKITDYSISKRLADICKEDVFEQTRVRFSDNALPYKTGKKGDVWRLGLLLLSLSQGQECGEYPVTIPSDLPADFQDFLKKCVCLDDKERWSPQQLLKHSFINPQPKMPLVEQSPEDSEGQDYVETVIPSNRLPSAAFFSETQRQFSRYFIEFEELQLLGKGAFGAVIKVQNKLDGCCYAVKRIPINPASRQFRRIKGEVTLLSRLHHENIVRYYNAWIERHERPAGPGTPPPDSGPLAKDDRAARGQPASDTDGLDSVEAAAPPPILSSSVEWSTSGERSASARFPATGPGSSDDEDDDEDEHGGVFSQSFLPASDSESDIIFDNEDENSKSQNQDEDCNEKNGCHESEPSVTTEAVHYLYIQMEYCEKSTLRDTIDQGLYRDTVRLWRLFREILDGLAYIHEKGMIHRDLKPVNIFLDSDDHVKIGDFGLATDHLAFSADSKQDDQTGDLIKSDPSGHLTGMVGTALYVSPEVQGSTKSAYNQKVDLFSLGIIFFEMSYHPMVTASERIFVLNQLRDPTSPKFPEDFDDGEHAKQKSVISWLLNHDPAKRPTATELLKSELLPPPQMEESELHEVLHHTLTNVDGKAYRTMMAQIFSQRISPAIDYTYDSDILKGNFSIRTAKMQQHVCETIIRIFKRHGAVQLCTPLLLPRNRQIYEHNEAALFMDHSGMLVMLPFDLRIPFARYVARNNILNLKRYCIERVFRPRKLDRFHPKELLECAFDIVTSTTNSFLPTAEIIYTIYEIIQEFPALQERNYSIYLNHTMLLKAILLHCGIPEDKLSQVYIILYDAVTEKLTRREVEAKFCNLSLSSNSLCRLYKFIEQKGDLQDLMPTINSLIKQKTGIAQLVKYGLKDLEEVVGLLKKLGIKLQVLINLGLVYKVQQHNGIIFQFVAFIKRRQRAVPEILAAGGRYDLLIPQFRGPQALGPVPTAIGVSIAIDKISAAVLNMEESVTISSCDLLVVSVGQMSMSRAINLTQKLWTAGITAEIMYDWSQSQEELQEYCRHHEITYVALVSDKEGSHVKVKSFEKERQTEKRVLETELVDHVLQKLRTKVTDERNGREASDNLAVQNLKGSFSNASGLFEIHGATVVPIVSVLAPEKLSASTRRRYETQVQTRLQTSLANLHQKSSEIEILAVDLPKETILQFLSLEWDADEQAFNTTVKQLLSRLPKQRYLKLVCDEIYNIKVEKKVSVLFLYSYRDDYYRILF

Some compounds with known IC50 results, for comparison:
In [3]: df
Out[3]:
                                   compound  readout_label    measured_value
0  COc1ncc(Cl)cc1C(=O)Nc1ccc(F)c(C#Cc2cnc(N)nc2)c1F           IC50         > 1000 nM
1  O=C(CO)N1CCN(c2ccnc(-c3cnc4ccc(C(F)(F)F)cn34)n2)CC1c1cn[nH]c1 (centres unmarked)           IC50      10 to 100 nM
2  Cc1cc(Nc2nc3cncc(-c4cnn(C)c4)n3n2)ccc1C(=O)NCC1CC1           IC50         < 1000 nM
3  N#Cc1cc(-c2cncc3nc(Nc4ccc(N5CCOCC5)cc4)nn23)ccc1OC1CCOCC1           IC50   1000 to 5000 nM
4  COc1cc(Nc2nc3c(N4CCN(C)CC4c4ccccc4)nccn3n2)cc(OC)c1 (centres unmarked)           IC50  3000 to 50000 nM
5  Cc1cc(-c2cnc3ccc(Cl)cn23)nc(N2C[C@H](C)C[C@H](c3cn[nH]c3)C2)n1           IC50      10 to 100 nM
6  NC(=O)[C@H]1CCCN(c2nc(-c3cnc4ccc(C(F)(F)F)cn34)ncc2F)C1           IC50           < 10 nM
7  CNS(=O)(=O)c1cccc(-c2cncc3nc(Nc4ccc(N5CCN(C)CC5)c(OC)c4)nn23)c1           IC50   1000 to 5000 nM

IC50 value, target or system GCN2 (Homo sapiens (Human), UniProt Q9P2K8), for C[C@@H]1[C@@H](c2cn[nH]c2)NCCN1c1ccnc(-c2cnc3ccc(C(F)(F)F)cn23)n1 : 100 to 1000 nM

---

pIC50: −log10 of the molar value.
System: GCN2 (Homo sapiens (Human), UniProt Q9P2K8) | Read-out: pIC50 | Origin: multiple publications

Below, 3 compounds whose answers are already recorded.
>>> print(df.to_string())
                                   compound  measured_value
0  NC(=O)[C@@H]1CC[C@@H](Nc2ncc3ncn(-c4ccc(I)cc4)c3n2)C1    5.30 to 6.00
1  CC1CN(c2ccnc(-c3cnc4ccc(C(F)(F)F)cn34)n2)CC(C)N1 (centres unmarked)    6.00 to 7.00
2  O=C(N1CCN(c2ccnc(-c3cnc4ccc(C(F)(F)F)cn34)n2)CC1c1cn[nH]c1)C1(C(F)F)CC1 (centres unmarked)    7.00 to 8.00

Query COc1cc(OC)cc(-c2nccn3nc(Nc4cc(C)cc(C)c4)nc23)c1 yields pIC50 of > 5.00

Query C[C@@H]1CN(c2ccnc(-c3cnc4ccc(Cl)cn34)n2)C[C@@H](C(N)=O)O1 yields pIC50 of 7.00 to 8.00

Per the record, Cn1ncc2cc(-c3cncc4nc(Nc5ccc6c(c5)CC(=O)N6)nn34)ccc21 has pIC50 of > 6.00

The compound listed as C[C@H]1CN(c2nccc(-c3cnc4cc(F)c(Cl)cn34)n2)C[C@H](c2cn[nH]c2)O1 has a reported pIC50 of > 8.00

So for C[C@@H]1[C@H](c2cn[nH]c2)NCCN1c1ccnc(-c2cnc3ccc(C(F)(F)F)cn23)n1 , the logged pIC50 turned out to be > 8.00

Measured pIC50, CC1(C)CC1CN1CCN(c2ccnc(-c3cnc4ccc(C(F)(F)F)cn34)n2)CC1c1cn[nH]c1 (centres unmarked) : 7.00 to 8.00

# pIC50 (compound: CC1[C@@H](c2cn[nH]c2)NCCN1c1ccnc(-c2cnc3ccc(C(F)(F)F)cn23)n1 (some centres unmarked) ) is > 8.00

Measured pIC50, Cc1cc(Nc2nc3cncc(-c4cccc(NS(C)(=O)=O)c4)n3n2)ccc1N1CCN(C)CC1 : > 6.00

Lab note: measured pIC50 of C[C@@H]1C[C@H](N=S(C)(C)=O)CN(c2ccnc(-c3cnc4cc(F)c(Br)cn34)n2)C1 was 7.00 to 8.00

Record summary for CC1(C)C(=O)Nc2cc(Nc3nc4c(N5CCC[C@H]5CO)nccn4n3)ccc21 : reported pIC50 = 4.30 to 5.52

The measured pIC50 associated with c1ccc(Oc2ccc3ncc(-c4nccc(N5CCC[C@@H](c6cn[nH]c6)C5)n4)n3c2)cc1 reads 7.00 to 8.00

Sample CC1(C)C(=O)Nc2cc(Nc3nc4c(N5CCC6(COC6)C5)nccn4n3)ccc21 ; pIC50 observed: 4.30 to 5.52

Entry under test: CCn1cc(Nc2ncc3ncn(-c4cnn(CC)c4)c3n2)cn1 . Its pIC50 was > 6.00

Sure, the documented pIC50 for CCc1cc(-c2c(F)ccc(NS(=O)(=O)c3cc(Cl)cnc3OC)c2F)cc2cnc(N[C@@H]3CC[C@@H](C(=O)NCCOC)C3)nc12 is 7.46

---

Study the reported IC50 values for GCN2 (Homo sapiens (Human)) given below; they originate from different publications.

Some molecules with known IC50 results, for comparison:
>>> print(df.to_string())
                                   molecule  measured_value
0  CC(=O)NC1CCCN(c2ccnc(-c3cnc4ccc(C(F)(F)F)cn34)n2)C1 (centres unmarked)    10 to 100 nM
1  CN(C)Cc1nc2cc(Nc3nc4cncc(-c5cnc6ccccc6c5)n4n3)ccc2[nH]1       < 1000 nM
2  CC(C)C1(O)C(=O)Nc2cc(Nc3nc4c(-c5cnn(C)c5)nccn4n3)ccc21 (centres unmarked)  300 to 3000 nM
3  N#CC1(C(=O)N2CCN(c3ccnc(-c4cnc5ccc(C(F)(F)F)cn45)n3)CC2c2cn[nH]c2)CC1 (centres unmarked)    10 to 100 nM
4  COCCn1cc([C@@H]2C[C@H](C)CN(c3nccc(-c4cnc5ccc(C(F)(F)F)cn45)n3)C2)cn1  100 to 1000 nM

Reported GCN2 (Homo sapiens (Human)) IC50 for item FC(F)(F)c1ccc2ncc(-c3nccc(N4CCN(CC5COC5)C(c5cn[nH]c5)C4)n3)n2c1 (centres unmarked) was < 10 nM

Let me check: CC1(C)CN(c2ccnc(-c3cnc4ccc(C(F)(F)F)cn34)n2)CC2(CN(S(C)(=O)=O)C2)O1 , system GCN2 (Homo sapiens (Human)), measured IC50 is 10 to 100 nM

Observed IC50 on GCN2 (Homo sapiens (Human)), entry C[C@@H](NS(C)(=O)=O)[C@H]1CN(c2ccnc(-c3cnc4ccc(C(F)(F)F)cn34)n2)CCO1 , equals 10 to 100 nM

The molecule COc1cc(Nc2nc3c(N4CCCC(C(=O)NCCO)C4)nccn3n2)cc(OC)c1 (centres unmarked) , when measured on GCN2 (Homo sapiens (Human)), yielded IC50 of 3000 to 50000 nM

Bench note, GCN2 (Homo sapiens (Human)): entry C[C@H]1CN(c2nccc(-c3cnc4ccc(Cl)cn34)n2)C[C@@H](c2cn[nH]c2)O1 , its IC50 = < 10 nM

The reported GCN2 (Homo sapiens (Human)) IC50 of CN(c1nccn2nc(Nc3ccc4c(c3)NC(=O)C4(C)C)nc12)C1CCCCC1 is 3000 to 50000 nM

Here NC(=O)C1(C2CCCN(c3ccnc(-c4cnc5ccc(Cl)cn45)n3)C2)CC1 (centres unmarked) was tested on GCN2 (Homo sapiens (Human)), and its IC50 came to 10 to 100 nM

Reported GCN2 (Homo sapiens (Human)) IC50 for item COc1cc(Nc2nc3cncc(-c4cnn(C)c4)n3n2)ccc1C(=O)NCC1CC1 was < 1000 nM

Record CC1CN(c2ccnc(-c3cnc4ccc(C(F)(F)F)cn34)n2)CC(C)N1C1COC1 (centres unmarked) has GCN2 (Homo sapiens (Human)) IC50 equal to 10 to 100 nM

// IC50 (GCN2 (Homo sapiens (Human))) for Cc1noc(C2CN(c3ccnc(-c4cnc5ccc(C(F)(F)F)cn45)n3)CCN2C)n1 (centres unmarked) = 100 to 1000 nM

---

Compiled from multiple publications: IC50 readings for GCN2 (Homo sapiens (Human), UniProt Q9P2K8).

                                   compound    measured_value
0  CC1(C)OC(=O)Nc2cc(Nc3nc4c(N5CCC6(C5)NC(=O)NC6=O)nccn4n3)ccc21 (stereo not shown)  3000 to 50000 nM
1  CC1CN(c2ccnc(-c3cnc4ccc(Cl)cn34)n2)C(C)C(c2cn[nH]c2)N1 (stereo not shown)           < 10 nM
2  COc1cc(Nc2nc3c(N4CCC(N)CC4)nccn3n2)cc(OC)c1  3000 to 50000 nM
3  Cc1cccc(Nc2nc3c(-c4ccc(N5CCOCC5)cc4)nccn3n2)c1        < 10000 nM

Looking up CCc1cc(-c2c(F)ccc(NS(=O)(=O)c3cc(Cl)cnc3OC)c2F)cc2cnc(N[C@H]3CC[C@H](NC)CC3)nc12 , I see its IC50 listed as 88.3 nM

The measured IC50 associated with C[C@@H]1CN(c2ccnc(-c3cnc4ccc(C(F)(F)F)cn34)n2)C[C@H](C)N1C(=O)C1CC(F)(F)C1 reads 100 to 1000 nM

// recorded IC50 for Cc1cc(Nc2nc3cncc(-c4ccc(C(C)(C)C#N)cc4)n3n2)ccc1N1CCN(C)CC1 : < 1000 nM

For this compound ( Cc1cc(Nc2nc3cncc(-c4cnn(C)c4)n3n2)ccc1NC(=O)C1CCNCC1 ), measured IC50 is < 1000 nM

Measured IC50 of Cc1[nH]ncc1[C@H]1C[C@H](O)CN(c2ccnc(-c3cnc4ccc(C(F)(F)F)cn34)n2)C1 : 10 to 100 nM

Reported IC50 for C[C@H]1[C@@H](CNS(C)(=O)=O)N(C2CC2)[C@@H](C)CN1c1ccnc(-c2cnc3ccc(C(F)(F)F)cn23)n1 (stereo in doubt) was 10 to 100 nM

The compound listed as C[C@@H]1CCN(c2ccnc(-c3cnc4ccc(C(F)(F)F)cn34)n2)CC1F (stereo in doubt) has a reported IC50 of 100 to 1000 nM

Quick note, IC50 for CC(C)(C)OC(=O)C1(O)CCCN(c2ccnc(-c3cnc4ccc(C(F)(F)F)cn34)n2)C1 (stereo not shown) landed at 100 to 1000 nM

Per the record, C[C@H]1[C@H](C(N)=O)NCCN1c1ccnc(-c2cnc3cc(F)c(C4CC4)cn23)n1 has IC50 of 10 to 100 nM

Lab book: IC50 of CC1(C)C(=O)Nc2cc(Nc3nc4c(N5CCC6(CC(=O)NC6=O)C5)nccn4n3)ccc21 (stereo not shown) noted as 3000 to 50000 nM
